System: MS2 coat protein
Test: apparent KD of MS2 coat protein; higher = weaker reporter binding
Settings: Eterna round: R107; input ligand: none
For each of the sequences below, state its apparent KD of MS2 coat protein.
Report only the number, with the unit µM understood.

*Q* // lookup apparent KD of MS2 coat protein for UGUACUAUGUGAAGGAGCGCCACAUGAGGAUCACCCAUGUAAACAUGAGGAUCACCCAUGUGGCAGGUAGGUCGCACAUAGUACU [ArgBS - Double MS2 - I don't expect this to work]
*A* 0.108

*Q* What do you have for UGUAUGUGAUCUGAUACCAGAGUGACGCGAAAGCGAAACCUGAGGAUCACCCUGGUAAAACUCCCUUGGCAGCAGAUCGCAUACU ?
*A* 0.0495

*Q* Then AAAAUCCUACUUGAGGAUCACCCAGGUGAAGGAGCGCCCGAAAGGGCAGGUAGGUCGCACCUGAGGAUCACCCUGGUAAACCUAA [ArgEX 8 #DoubleMS2 #OpenEnded] ?
*A* 0.14

* * *

Record form. Attribute: apparent KD of K4 kissing-loop reporter. Fill in for each entry.
Test system: K4 kissing-loop RNA reporter;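 further: bound reporter read as fluorescence of individual clusters on recovered sequencing chips by microscopy, with normalized cluster intensities fitted with a binding model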
Assay: apparent KD of K4 kissing-loop reporter; higher = weaker reporter binding
Conditions: Eterna round: R107; input ligand: tryptophan 2.4 mM
Your answer is read as nM, so omit the unit and give the number.

*Q* What does the record list as apparent KD of K4 kissing-loop reporter for UCUGCAAAGUCGGCCGCCACUCCGGGCCCUAUAAAUGGGCGCAGUGAUGUUGCGGCUAGGCCUCUGAGGACCGGGACUUUAUAGA [Anarisgema] ?
*A* 175

*Q* Same thing, different sequence: UUCAGGUGUUCGGCCGCCACUCCAGUGAUGUUGGAGUGGCUUCACAAGGACCAGGACAAUGUAAGGAGGACCGGGAAUAUCGCAG [Leerat]
*A* 125

*Q* Moving on to AAACAUUGGUCGGAUACCAGCUUGAUCGGAAAACGAUCUGCUGGAGUGAUGUUCCAAUAAAGCCCUUGGCAGCCGACCGAUGAAA [MAT - Same State Theophlline B - Mod of Eli - D14]
*A* 780

*Q* Try the sequence UUUAACGAGUGAUGUUCGAAAAGUAAUGGUUAGGAUAUCGUUUUUUCGAGAAGGAACCUCGAAGUGAUACGAAAGUAUCGCUUCG [FMN A 2]
*A* 240

*Q* And for UGUGAACAAAAGUAGAGUGGACCACUAUAGCGAGGACCGGUACGGCCGCCACUCGUGUAUGAAUUCAGUGAUGUUGAAAAGAGCU [whbob_EX_Tryp_A_t11] ?
*A* 134

*Q* Queued: AAGGCCACGAGAAGGAGCGUGUUGUGGAGUGAUGUUCCAUUGUAGACCUAAGGUCUACAAGCACAGGUAGGUCGCUCGUGGUCAA [Omei KL Arginine B SS A v5]
*A* 119

*Q* Moving on to UGAUACCAGACGGCCGCCACUCCUGCAAGUCAAAGACUUGCUAAGGAAAUCGUCCAGUGAUGUUGGAGGACCGGGUCUGGUAUCU [TrypBX 17 #SwitchBubble #Palindromic #StaticStem]
*A* 899

*Q* Request: UGAUAGGACAGAAGGAGCGGAAGUGAUGUUUCCAAAAGGGAAGGUCGACAAAGUCGACCCUUCCAGGUAGGUCGCUGUCCUAUCU [ArgBX 9 #Palindromic #SwitchBubble #StaticStem]
*A* 68.7

*Q* What about this sequence? UGUAUGUGAUUUGAUACCAGACCAUCUUGUGAAUGAUGAGUGAUGUUUAUUAUGGUUUGGGUCCCUUGGCAGCAAAUCGCAUACU [KL-SSTheoB25]
*A* 803

*Q* Query AUUAACCUUUUAGCUAUAUUUUUAUGUGAUACCAGACAUGGCAUAGUCCCUUGGCAGCACAUUAUAUUUACGAGUGAUGUUCGAA [JR_SSTheophyA_Sub026] next
*A* 194

*Q* Let us now turn to UUGGCAGUGAUGUUGCCAGAGUUCACCGAAGGAGCGGGUGAAAACCCAGGUAGGUCGCGGUAGCGGAGUGAUUCUCCGCGAGGGC [Same State Arginine A GF 22]
*A* 91.4

*Q* Check ACCUAGUACGUAGGAUAUCGAACAUCAUUUAGUGAGAUCGAGUGAUGUUCGAUCACGUCUUCAGUUCGAGAAGGACGUACUAGGA [FMN B SS t4] too.
*A* 351

*Q* Next sequence up: UUACGAGUGAUGUUCGAAUAAAUCCAUUCAGAGGAUAUAGUAUUAACUAGAAGGCUGAAACCAACUUCGAGUCAUGUUCGAGGAU [Same State FMN A GF 2]
*A* 269

*Q* // same read-out, input: GCCAGUGAUGUUGGCAUUUCGAGCCAUGAAGGAGCGCACGGAAGUGCAGGUAGGUCGCAUGGUACUUAAGAUAUUAUCCUAAGUA [Atceis]
*A* 129

*Q* Similarly, UUAUUAAUAACAGAUACCAGUCCAGAAUGAAAACUAUAGUGAUGUUAUAAUAAAGGGAAGGACCCUUGGCAGCUGUAAUAUAUUU [AstrosSSTheB#2] ?
*A* 394

*Q* Again, but for UGCGCUGUGUACUGAAAUGUUAUGCGGGAUACCAGAGUCUUUUUAUUCCCUUGGCAGCUUGAGUGAUGUUUGAUGCCGUUCUUGU [po,,mmullin]
*A* 418

*Q* Similarly, UUUCGGCCCAGUGAUGUUGGGUGGAGGCGGCGAGGACCGGUACGGCCGCCACUCGGCGCACUGGCGGAGUGAUGUUUCGUGUAUA [Same State Tryptophan A GF 14] ?
*A* 834

*Q* Moving on to UGUCAUUGGUCGGCCGCCACUUCAUAGAGAGUGAUGUUCUUAAAGACGGAUCGAAAGAUCUGUCGAAGGACCGGGACCGAUGACU [FiskerMod 9 - Jieux - Same State - Tryptophan B]
*A* 302

*Q* // query: GUUACGCAUGGAAGGAGCGCAUGCUCAACUAUAAGCUCAGUGAUGUUGAGCAUUUUUUUUUUGCAGGUAGGUCGCCAUGUGUAAC [Ex Arginine B K4 29]
*A* 217

*Q* Query GCGGGCCAGACGGCCGCCACUCCGGGCAGUGAUGUUGCGAAAAUUCUACUAGAGUGAUGUUCUACGAGGACCGGGUCGGAACGCG [Exclusion Tryptophan B Gf 12] next
*A* 257

*Q* Try this sequence too: UUUAUUAAGACGGCCGCCACUGAUUCAUAGUGAUGUUAUGAUAUAAUUUUAGUGAUUUUGAUUAGCAGGACCGGGUCAAUUAUUA [JR_ExcTryptoB_Sub016]
*A* 172

*Q* Also UUAUAUUUUAUAUUUAGUAGAGCUCUCGCUCGAGGACCGGUACGGCCGCCACUCGAGUGAUGUUCGAGUGGGAGAGCUCUACAUU [AK3.3 EXC Tryptophan A] ?
*A* 181

*Q* Item: UGUGUUGUUGUGAUGUUUAGUGUUGUUGGGCAGGAUAUCGUAGAGGCGAGAAGGGCUUGUGUGCUGUAUGAGUGAUGUUUGUAGG [xrrxmullin]
*A* 322
